Where do these numbers come from? They come from patent US9353090B2.

assay: physchem; settings: pH 2.2, aqueous buffer, kinetic from dmso stock, Solubility (pH 2.2)
assay-metric: solubility at 24 h (µg/mL)

>  <molecule>
COc1cc(COc2c(C)cccc2-c2csc(N3CC[C@@H](C(=O)O)[C@@H](OC)C3)n2)cc2c1CN([C@H]1CCOC1)CC2 [Compound 211]

>  <unit-info>
µg/mL

>  <solubility at 24 h>
133

$$$$
>  <molecule>
CO[C@H]1CN(c2nc(-c3cccc(C)c3OCc3ccc4c(c3)[C@@H](C)CN(C3COC3)CC4)cs2)CC[C@H]1C(=O)O [Compound 325]

>  <unit-info>
µg/mL

>  <solubility at 24 h>
131

$$$$
>  <molecule>
CCc1cc(COc2ccc(C)cc2-c2cccc(N3CC[C@H](C(=O)O)[C@H](OC)C3)n2)cc2c1CN(C1CCOCC1)CC2 [Compound 79]

>  <unit-info>
µg/mL

>  <solubility at 24 h>
140

$$$$
>  <molecule>
Cc1cccc(-c2cccc(N3C[C@@H]4C[C@]4(C(=O)O)C3)n2)c1OCc1cc(C#N)c2c(c1)CCN(C1COC1)C2 [Compound 29]

>  <unit-info>
µg/mL

>  <solubility at 24 h>
110

$$$$
>  <molecule>
CO[C@H]1CN(c2cccc(-c3cccc(C)c3OCc3ccc4c(c3C)CCN(C3CCOCC3)C4)n2)CC[C@H]1C(=O)O [Compound 65]

>  <unit-info>
µg/mL

>  <solubility at 24 h>
130

$$$$
>  <molecule>
Cc1ccc(OCc2cc(C)c3c(c2)CCN(C2CCOCC2)C3)c(-c2csc(N3CC[C@@]4(C(=O)O)C[C@H]4C3)n2)c1 [Compound 123]

>  <unit-info>
µg/mL

>  <solubility at 24 h>
120

$$$$
